Test Details: in vitro
Measurement Parameters: human, hela cells, % viability
Readout Label: viability at 28.5 h, 10 µM

>>> df
                                    compound               readout_label  meas_value
 0  Cn1c(/N=N/c2c(-c3ccccc3)n(C)c3ccccc23)nc2ccccc21  viability at 28.5 h, 10 µM       81.2%
 1  COc1cc(S(=O)(=O)Nc2ccc(CC(=O)O)cc2)ccc1Cl  viability at 28.5 h, 10 µM        107%
 2  COc1ccc2c(c1)CC(=O)NC21CCN(C(=O)N[C@@H](C)c2ccccc2)CC1  viability at 28.5 h, 10 µM       92.4%
 3                   COCc1cc(C)nc(NCCO)c1C#N  viability at 28.5 h, 10 µM       96.6%
 4  O=C(O)CCc1nn2c(-c3ccccc3)c(-c3ccccc3)nc2[nH]c1=O  viability at 28.5 h, 10 µM       86.5%
 5  COc1ccc(-c2nc(NC(=O)CSc3nnc(C)s3)ns2)cc1  viability at 28.5 h, 10 µM       96.9%
 6  O=C(OCC#CCSc1nnc(-c2ccccc2)o1)c1ccc([N+](=O)[O-])cc1  viability at 28.5 h, 10 µM        107%
 7  O=C(COc1ccccc1[N+](=O)[O-])Nc1nc2c(s1)CCC2  viability at 28.5 h, 10 µM       85.1%
 8  CCCn1cnc2cc(NC(=O)c3ccc(=O)n(CC(=O)N(C)c4ccccc4)c3)ccc21  viability at 28.5 h, 10 µM       94.3%
 9  CC(C)CNC(=O)c1cccc(NC(=O)N2CCC2c2cccs2)c1 (stereo not shown)  viability at 28.5 h, 10 µM       99.9%
10       Cn1c(C(=O)N2CCc3ccccc3C2)cc2ccccc21  viability at 28.5 h, 10 µM       96.7%
11  Cc1ccc(S(=O)(=O)NC2=NCN(CCOC(=O)c3ccc([N+](=O)[O-])cc3)CN2)cc1  viability at 28.5 h, 10 µM       92.8%
12  COc1cncc(C(NC(=O)c2ccc3[nH]nnc3c2)[C@H]2C[C@@H](O)C2)c1 (stereo partly shown)  viability at 28.5 h, 10 µM        108%
13  Cc1nnc(SCc2cc(=O)[nH]c(N3CCN(C)CC3)n2)s1  viability at 28.5 h, 10 µM       91.7%
14  N#C/C(=C\c1ccc(-c2cccc(C(=O)O)c2)o1)c1nc2ncc(Br)cc2[nH]1  viability at 28.5 h, 10 µM       96.1%
15  CCCc1nnc(SCC(=O)Nc2ccc(CN3CCOCC3)cc2)[nH]1  viability at 28.5 h, 10 µM       82.4%
16   CN(C)c1ccc(/C=C/c2noc(-c3ccccc3O)n2)cc1  viability at 28.5 h, 10 µM        109%
17        CCOC(=O)c1sc(Nc2nc(C)cc(OC)n2)nc1C  viability at 28.5 h, 10 µM        108%
18        Cn1c(=O)c2c(ncn2Cc2ccccc2)n(C)c1=O  viability at 28.5 h, 10 µM        102%
